# Tgt: Transient receptor potential cation channel subfamily V member 1 (Homo sapiens, UniProt Q8NER1)
# Sequence (Q8NER1 whole entry): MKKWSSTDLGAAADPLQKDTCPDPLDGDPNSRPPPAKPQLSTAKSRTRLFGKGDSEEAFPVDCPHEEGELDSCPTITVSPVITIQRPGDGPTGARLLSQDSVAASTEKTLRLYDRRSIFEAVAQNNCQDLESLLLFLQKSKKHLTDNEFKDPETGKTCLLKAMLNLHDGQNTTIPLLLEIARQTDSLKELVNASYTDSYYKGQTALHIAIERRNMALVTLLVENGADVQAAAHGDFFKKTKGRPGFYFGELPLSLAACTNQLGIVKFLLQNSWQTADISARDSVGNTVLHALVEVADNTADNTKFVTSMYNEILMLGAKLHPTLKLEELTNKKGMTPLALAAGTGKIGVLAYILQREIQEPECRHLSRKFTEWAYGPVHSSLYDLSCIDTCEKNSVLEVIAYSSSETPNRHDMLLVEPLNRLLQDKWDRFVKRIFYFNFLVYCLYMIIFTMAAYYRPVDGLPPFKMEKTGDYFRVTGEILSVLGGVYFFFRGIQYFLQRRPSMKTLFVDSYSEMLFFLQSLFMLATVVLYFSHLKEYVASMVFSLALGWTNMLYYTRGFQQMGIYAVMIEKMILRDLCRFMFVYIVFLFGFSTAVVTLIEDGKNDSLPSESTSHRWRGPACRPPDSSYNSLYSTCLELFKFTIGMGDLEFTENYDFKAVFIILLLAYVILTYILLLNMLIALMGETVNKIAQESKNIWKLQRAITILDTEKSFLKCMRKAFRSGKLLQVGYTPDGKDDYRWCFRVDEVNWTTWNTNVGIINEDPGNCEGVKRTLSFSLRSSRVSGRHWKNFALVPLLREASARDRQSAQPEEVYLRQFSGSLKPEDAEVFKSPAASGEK
# Protocol: Agonist activity at human TRPV1 ion channel expressed in HEK293 cells assessed as calcium influx by fluo-4-Am-based fluorimetry relative to ionomycin
# Type: functional, cell-based
Use label 1 when the recorded Efficacy is no lower than 50%; use label 0 when it is lower.

>  <Compound>
O=C(CCc1ccc2c(c1)OCO2)CC(O)Cc1ccccc1 (stereo unspecified)

>  <Answer label>
label 0

$$$$
>  <Compound>
O=C(CCc1ccc(O)cc1)CC(O)Cc1ccccc1 (stereo unspecified)

>  <Answer label>
label 0

$$$$
>  <Compound>
O=C(CCc1ccc(O)cc1)CC(O)CCCCCCc1ccccc1 (stereo unspecified)

>  <Answer label>
label 0

$$$$
>  <Compound>
CC(C)c1cc(CCC(=O)CC(O)Cc2ccccc2)cc(C(C)C)c1O (stereo unspecified)

>  <Answer label>
label 0

$$$$
>  <Compound>
O=C(/C=C/CCCCCCc1ccccc1)CCc1ccc(O)cc1

>  <Answer label>
label 0

$$$$
>  <Compound>
COc1cc(CCC(=O)CC(O)CCCCCCc2ccccc2)ccc1O (stereo unspecified)

>  <Answer label>
label 1

$$$$
>  <Compound>
CCCCCC(O)CC(=O)CCc1ccc2c(c1)OCO2 (stereo unspecified)

>  <Answer label>
label 0

$$$$
>  <Compound>
CC(C)c1cc(CCC(=O)CC(O)CCCCCCc2ccccc2)cc(C(C)C)c1O (stereo unspecified)

>  <Answer label>
label 0

$$$$
>  <Compound>
Cc1cc(O)c(C(C)C)cc1CCC(=O)CC(O)CCCCCCc1ccccc1 (stereo unspecified)

>  <Answer label>
label 0

$$$$
>  <Compound>
COc1cc(CCC(=O)CC(O)Cc2ccccc2)ccc1O (stereo unspecified)

>  <Answer label>
label 1

$$$$

* * *

Efficacy listing for selected compounds.
# Tgt: Transient receptor potential cation channel subfamily V member 1 (Homo sapiens)
# Protocol: Agonist activity at human TRPV1 ion channel expressed in HEK293 cells assessed as calcium influx by fluo-4-Am-based fluorimetry relative to ionomycin
# Type: functional, cell-based

>  <Compound>
CCCCC/C=C/C(=O)CCc1ccc(O)c(OC)c1 [SHOGAOL]

>  <Efficacy>
79.2%

$$$$
>  <Compound>
CCCCCC(O)CC(=O)CCc1ccccc1 (stereo not drawn)

>  <Efficacy>
< 10%

$$$$
>  <Compound>
Cc1cc(O)c(C(C)C)cc1CCC(=O)CC(O)Cc1ccccc1 (stereo not drawn)

>  <Efficacy>
< 10%

$$$$
>  <Compound>
O=C(CCc1ccccc1)CC(O)Cc1ccccc1 (stereo not drawn)

>  <Efficacy>
< 10%

$$$$
>  <Compound>
CCCCCC(O)CC(=O)CCc1cc(C(C)C)c(O)cc1C (stereo not drawn)

>  <Efficacy>
< 10%

$$$$
>  <Compound>
CCCCCC(O)CC(=O)CCc1cc(C(C)C)c(O)c(C(C)C)c1 (stereo not drawn)

>  <Efficacy>
< 10%

$$$$
>  <Compound>
O=C(CCc1ccccc1)CC(O)CCCCCCc1ccccc1 (stereo not drawn)

>  <Efficacy>
< 10%

$$$$
>  <Compound>
CCCCCC(O)CC(=O)CCc1ccc(O)cc1 (stereo not drawn)

>  <Efficacy>
23.6%

$$$$

* * *

pIC50 listing for selected molecules.
# Tgt: Transient receptor potential cation channel subfamily A member 1 (Rattus norvegicus, UniProt Q6RI86)
# Sequence (Q6RI86 whole entry): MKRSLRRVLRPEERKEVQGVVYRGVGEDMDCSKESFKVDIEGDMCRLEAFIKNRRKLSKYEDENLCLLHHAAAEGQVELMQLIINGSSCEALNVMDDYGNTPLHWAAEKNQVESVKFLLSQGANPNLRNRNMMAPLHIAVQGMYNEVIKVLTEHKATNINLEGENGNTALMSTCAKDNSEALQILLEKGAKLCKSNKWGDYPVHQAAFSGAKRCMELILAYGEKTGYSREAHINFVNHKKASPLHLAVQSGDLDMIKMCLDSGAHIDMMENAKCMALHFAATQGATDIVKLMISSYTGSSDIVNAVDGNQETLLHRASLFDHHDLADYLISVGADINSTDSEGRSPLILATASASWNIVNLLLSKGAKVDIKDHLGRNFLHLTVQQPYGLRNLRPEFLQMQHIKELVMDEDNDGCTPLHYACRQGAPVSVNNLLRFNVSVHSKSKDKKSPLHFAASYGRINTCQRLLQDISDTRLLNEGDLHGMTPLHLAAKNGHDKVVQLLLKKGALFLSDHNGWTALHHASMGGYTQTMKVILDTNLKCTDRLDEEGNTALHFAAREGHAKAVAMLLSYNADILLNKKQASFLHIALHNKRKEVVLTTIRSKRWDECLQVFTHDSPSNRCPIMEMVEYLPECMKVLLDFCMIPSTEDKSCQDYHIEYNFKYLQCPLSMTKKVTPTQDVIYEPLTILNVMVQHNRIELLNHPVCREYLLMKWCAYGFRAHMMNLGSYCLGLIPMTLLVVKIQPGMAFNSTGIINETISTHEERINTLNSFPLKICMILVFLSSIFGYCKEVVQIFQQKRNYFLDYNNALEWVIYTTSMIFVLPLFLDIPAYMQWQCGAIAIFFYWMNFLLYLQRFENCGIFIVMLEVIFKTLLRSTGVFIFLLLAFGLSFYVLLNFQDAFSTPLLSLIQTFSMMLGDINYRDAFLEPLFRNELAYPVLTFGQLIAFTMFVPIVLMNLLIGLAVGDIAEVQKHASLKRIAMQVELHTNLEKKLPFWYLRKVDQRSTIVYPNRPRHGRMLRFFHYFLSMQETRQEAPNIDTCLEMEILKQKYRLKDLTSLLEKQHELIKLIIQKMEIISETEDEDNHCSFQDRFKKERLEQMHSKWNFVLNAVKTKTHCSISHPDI
# Protocol: Antagonist activity at rat TRPA1 ion channel expressed in HEK293 cells assessed as inhibition of AITC-induced calcium influx incubated for 5 mins prior to AITC-induction by fluo-4-AM-based fluorimetry
pIC50: −log10 of the molar value.
Measured metric: pIC50

>  <Molecule>
Cc1cc(O)c(C(C)C)cc1CCC(=O)CC(O)CCCCCCc1ccccc1 (configuration not stated)

>  <Measured metric>
pIC50

>  <Value comparator>
=

>  <Recorded measurement>
4.84

$$$$
>  <Molecule>
CCCCCC(O)CC(=O)CCc1ccccc1 (configuration not stated)

>  <Measured metric>
pIC50

>  <Value comparator>
=

>  <Recorded measurement>
4.25

$$$$
>  <Molecule>
CCCCCC(O)CC(=O)CCc1ccc(O)c(OC)c1 (racemic)

>  <Measured metric>
pIC50

>  <Value comparator>
<

>  <Recorded measurement>
4.00

$$$$
>  <Molecule>
O=C(CCc1ccc(O)cc1)CC(O)CCCCCCc1ccccc1 (configuration not stated)

>  <Measured metric>
pIC50

>  <Value comparator>
=

>  <Recorded measurement>
4.80

$$$$
>  <Molecule>
O=C(CCc1ccccc1)CC(O)Cc1ccccc1 (configuration not stated)

>  <Measured metric>
pIC50

>  <Value comparator>
=

>  <Recorded measurement>
5.35

$$$$
>  <Molecule>
CCCCC/C=C/C(=O)CCc1ccc(O)c(OC)c1

>  <Measured metric>
pIC50

>  <Value comparator>
=

>  <Recorded measurement>
4.78

$$$$
>  <Molecule>
O=C(CCc1ccc(O)cc1)CC(O)Cc1ccccc1 (configuration not stated)

>  <Measured metric>
pIC50

>  <Value comparator>
=

>  <Recorded measurement>
4.45

$$$$
>  <Molecule>
Cc1cc(O)c(C(C)C)cc1CCC(=O)CC(O)Cc1ccccc1 (configuration not stated)

>  <Measured metric>
pIC50

>  <Value comparator>
=

>  <Recorded measurement>
4.40

$$$$
>  <Molecule>
O=C(/C=C/CCCCCCc1ccccc1)CCc1ccc(O)cc1

>  <Measured metric>
pIC50

>  <Value comparator>
=

>  <Recorded measurement>
5.64

$$$$
>  <Molecule>
CCCCCC(O)CC(=O)CCc1cc(C(C)C)c(O)cc1C (configuration not stated)

>  <Measured metric>
pIC50

>  <Value comparator>
=

>  <Recorded measurement>
5.41

$$$$
>  <Molecule>
O=C(CCc1ccc2c(c1)OCO2)CC(O)Cc1ccccc1 (configuration not stated)

>  <Measured metric>
pIC50

>  <Value comparator>
=

>  <Recorded measurement>
4.84

$$$$
>  <Molecule>
CCCCCC(O)CC(=O)CCc1cc(C(C)C)c(O)c(C(C)C)c1 (configuration not stated)

>  <Measured metric>
pIC50

>  <Value comparator>
=

>  <Recorded measurement>
5.55

$$$$

Origin of values: ChEMBL document CHEMBL1949507
